The following compounds are listed with their measured z-score values.
- measurement-protocol: ATP-based viability of Huh7 replicon cells – cell-based, CellTiter-Glo luminescence, basal, 48 h, cytotoxicity control for HCV replication inhibitor project, primary screen (AID 1143);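 note: Huh7 hepatoma cells carrying a hepatitis C replication reporter with no stimulus; test concentration not given here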
- measurement-setup: higher = more signal, called active from +8 up or from −8 down
assay-metric: z-score

compound	numeric-readout
CN(C)CCCNC(=O)[C@@]1(Cc2ccccc2I)c2ccccc2C(=O)N(Cc2ccccc2Cl)[C@H]1c1ccc(CO)cc1	-5.9
COc1ccc(CCNC(=O)[C@@H]2c3ccccc3C(=O)N(Cc3ccccc3)[C@H]2c2ccc(CO)cc2)cc1	-2.05
COCCCNC(=O)[C@@H]1c2ccccc2C(=O)N(Cc2cc(F)cc(C(F)(F)F)c2)[C@H]1c1ccc(CO)cc1	-0.016
CC1=C2[C@@H](CCc3ccccc3)OB(O)C[C@@H]2[C@@H]2C(=O)C=CC(=O)[C@@H]2C1	-0.894
CC1C=C(CCCO)C=C(C(=O)OCCS(C)(=O)=O)C(C(=O)OCCS(C)(=O)=O)=CN1Cc1cccc(OC(F)(F)F)c1 (stereo not given)	-0.911
C[N+](C)(C)CCCCCCNC(=O)[C@H]1C[C@H]2C(=O)N3CCC[C@H]3C(=O)N2[C@H]1c1cccc(OCCO)c1	-0.0803
CC(C)C[C@@H]1NC(=O)[C@@H]2C[C@H](C(=O)NCc3ccc(F)cc3)[C@H](c3ccc(O)cc3)N2C1=O	-0.393
COc1ccccc1CN1C(=O)c2ccccc2[C@](Cc2ccccc2I)(C(=O)NCCN2CCOCC2)[C@@H]1c1ccc(CO)cc1	-4.52
CC(C)c1ccc(NN2C(C(O)c3ccccn3)C=CC3C(=O)N(c4ccccc4)C(=O)C32)cc1 (stereo not given)	0.0489
COc1cc(C(O)C2C=CC3C(=O)N(C)C(=O)C3N2NC(=O)OC(C)(C)C)cc(OC)c1OC (stereo not given)	0.778
C=CCN1C(=O)[C@@]2(O[C@@H](CCO)[C@H]([Si](C)(C)c3ccc(OC)cc3)[C@H]2C)c2cc(NC(=O)[C@H](C)O)ccc21	-5.04
O=C1NC(=O)C2C1C=CC(C(O)c1ccc3c(c1)OCO3)N2Nc1ccc(Cl)cc1Cl (stereo not given)	-0.0416
COC(=O)[C@@]1(Cc2ccccc2)[C@H]2c3cc(C(=O)N(C)C)n(Cc4ccc(O)c(OC)c4)c3C[C@H]2CN1C(=O)c1ccccc1	-4.52
COCCOC(=O)N1C(=O)[C@@]2(c3cc(C#CCCO)ccc31)[C@H](c1ccc(OCCO)cc1)N1[C@H](c3ccccc3)[C@H](c3ccccc3)OC(=O)[C@H]1[C@@H]2C(=O)N1CCc2cc(OC)c(OC)cc2C1	-0.415
CCOC(=O)C[C@H]1[C@H](OC(=O)Cc2ccc3c(c2)OCO3)[C@@H](NC(=O)c2ccccc2)c2cc(OCCCO)ccc2N1C(=O)c1ccc2ccccc2n1	-0.629
